B1: CPEB3 Ribozyme (parent)
chain: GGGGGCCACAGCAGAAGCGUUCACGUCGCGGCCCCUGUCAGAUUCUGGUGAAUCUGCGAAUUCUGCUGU

- Variants of: B1
- TEST METHOD NOTES: self-cleavage, relative activity (ratio to wild type); higher = more cleavage; co-transcriptional
EXPERIMENTAL READOUT: self-cleavage

In [3]: df
Out[3]:
    mutant_name  experimental_readout  observed_result
 0      G4C A8C         self-cleavage            0.578
 1     C6A U44C         self-cleavage            0.455
 2    G11U G37A         self-cleavage            0.145
 3    G37A U44C         self-cleavage            0.326
 4    G31U G68A         self-cleavage            0.957
 5    U43C G47A         self-cleavage             1.02
 6      G2A A8G         self-cleavage            0.105
 7     C7G C45A         self-cleavage            0.378
 8    A10U U55G         self-cleavage            0.888
 9    C24A A52G         self-cleavage            0.772
10    C45G A52C         self-cleavage            0.981
11    G31C U43C         self-cleavage            0.289
12     C6G G47A         self-cleavage            0.377
13    C12A U62A         self-cleavage            0.248
14    A16U C35A         self-cleavage            0.159
15    A42C G50A         self-cleavage            0.952
16    A13U G30C         self-cleavage            0.393
17    C32A U61C         self-cleavage            0.365
18    A13G G28U         self-cleavage             0.15
19    A13U G19A         self-cleavage            0.145
20     G2U G11A         self-cleavage            0.049
21    C18G G48U         self-cleavage            0.208
22    G17A G19U         self-cleavage            0.114
23      C6G A8C         self-cleavage            0.873
24    G31A C57A         self-cleavage            0.307
25     C7A U46C         self-cleavage            0.587
26    G11U G31U         self-cleavage            0.499
27    C34U A40U         self-cleavage            0.838
28      G2C C7A         self-cleavage           0.0323
29    A40G G58C         self-cleavage            0.973
30    G25A G68U         self-cleavage            0.224
31     G4U G37A         self-cleavage            0.144
32    A23U U53A         self-cleavage            0.903
33    G19A G30U         self-cleavage            0.147
34    U46C A51G         self-cleavage            0.988
35     C6G G17U         self-cleavage           0.0809
36    U43A G50U         self-cleavage            0.959
37     G2C G37U         self-cleavage           0.0045
38     C7A G68A         self-cleavage            0.984
39    U26A U38G         self-cleavage            0.244
40    U44A U62G         self-cleavage            0.685
41    U36C G41A         self-cleavage            0.507
42    A23G G65A         self-cleavage            0.752
43    C22G U67A         self-cleavage            0.242
44     G2C U61G         self-cleavage           0.0289
